target-entity: human DOP receptor (Homo sapiens, UniProt P41143)
Sequence (P41143 whole entry): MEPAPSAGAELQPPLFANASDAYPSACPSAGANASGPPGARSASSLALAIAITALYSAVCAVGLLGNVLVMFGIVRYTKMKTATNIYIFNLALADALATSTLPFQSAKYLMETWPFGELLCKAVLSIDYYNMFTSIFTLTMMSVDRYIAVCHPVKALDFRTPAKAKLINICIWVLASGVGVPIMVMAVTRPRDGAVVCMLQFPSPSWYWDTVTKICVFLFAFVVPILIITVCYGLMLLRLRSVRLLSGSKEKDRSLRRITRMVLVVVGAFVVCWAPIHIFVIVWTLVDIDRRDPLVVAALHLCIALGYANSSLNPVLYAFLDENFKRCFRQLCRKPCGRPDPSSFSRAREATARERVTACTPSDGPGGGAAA
assay-remarks: Antagonism of DPDPE effect in cAMP assay, CHO-DOP cells
measurement-parameters: read-out: Antagonist Effect (Kd)
Non-standard residues stand in square brackets, D forms with d. Residues, ends and D or L forms follow the SMILES beside them. *: point of attachment. Dmt = Cc1cc(O)cc(C)c1C[C@H](N)C(=O)O; Pip = O=C(O)[C@@H]1CCCCN1; NHBn = c1ccc(CN*)cc1
measured-metric: Kd (µM)
Give just the number in µM; leave the unit off.

Q: I am curious: what Kd value has been reported for Cc1cc(O)cc(C)c1C[C@H](N)C(=O)N1CCCC[C@H]1C(=O)NCC(=O)NCc1ccccc1 [UTA1003] (H-[Dmt]-[Pip]-Gly-NHBn) ?
Ans: 0.0478

====

target-entity: human NOP receptor (Homo sapiens, UniProt P41146)
Construct: expressed in transfected cells; host or cells: CHO (CHO-NOP, G418 and hygromycin B selection)
Sequence (P41146 whole entry): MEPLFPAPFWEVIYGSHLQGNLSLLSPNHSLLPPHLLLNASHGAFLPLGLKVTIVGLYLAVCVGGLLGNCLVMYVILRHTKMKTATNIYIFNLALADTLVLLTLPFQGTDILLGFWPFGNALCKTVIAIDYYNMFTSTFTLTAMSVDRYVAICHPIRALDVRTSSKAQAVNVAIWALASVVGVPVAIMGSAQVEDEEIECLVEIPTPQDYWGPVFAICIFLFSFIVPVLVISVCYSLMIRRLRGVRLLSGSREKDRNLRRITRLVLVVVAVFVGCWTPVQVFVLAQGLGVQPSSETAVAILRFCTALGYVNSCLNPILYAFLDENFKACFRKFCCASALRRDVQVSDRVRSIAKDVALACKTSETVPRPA
assay-remarks: cAMP assay in CHO-NOP cells (agonism)
Assay type: cell-based
measurement-parameters: EC50, CHO-NOP; 5 µM forskolin
Non-standard residues stand in square brackets, D forms with d. Residues, ends and D or L forms follow the SMILES beside them. *: point of attachment. Dmt = Cc1cc(O)cc(C)c1C[C@H](N)C(=O)O; Pip = O=C(O)[C@@H]1CCCCN1; NHBn = c1ccc(CN*)cc1
measured-metric: EC50 (µM)
Supply the numeric figure in µM, leaving out any unit text.

Q: I'd like to know its EC50. The compound in question is Cc1cc(O)cc(C)c1C[C@H](N)C(=O)N1CCCC[C@H]1C(=O)NCC(=O)NCc1ccccc1 [UTA1003] (H-[Dmt]-[Pip]-Gly-NHBn)
Ans: 1.79

====

target-entity: human MOP receptor (Homo sapiens)
Construct: expressed in transfected cells; host or cells: CHO (CHO-MOP, G418 selection)
assay-remarks: cAMP assay in CHO-MOP cells (agonism)
Format: cell-based
measurement-parameters: pEC50, CHO-MOP
Non-standard residues stand in square brackets, D forms with d. Residues, ends and D or L forms follow the SMILES beside them. *: point of attachment. Dmt = Cc1cc(O)cc(C)c1C[C@H](N)C(=O)O; Pip = O=C(O)[C@@H]1CCCCN1; NHBn = c1ccc(CN*)cc1
measured-metric: pEC50
// pEC50: -log10(molar conc.)

Q: What value of pEC50 has been recorded for this entry: Cc1cc(O)cc(C)c1C[C@H](N)C(=O)N1CCCC[C@H]1C(=O)NCC(=O)NCc1ccccc1 [UTA1003] (H-[Dmt]-[Pip]-Gly-NHBn)
Ans: 8.16

====

target-entity: human NOP receptor (Homo sapiens)
Construct: expressed in transfected cells; host or cells: CHO (CHO-NOP, G418 and hygromycin B selection)
assay-remarks: cAMP assay in CHO-NOP cells (agonism)
Type: cell-based
measurement-parameters: pEC50, CHO-NOP
Non-standard residues stand in square brackets, D forms with d. Residues, ends and D or L forms follow the SMILES beside them. *: point of attachment. Dmt = Cc1cc(O)cc(C)c1C[C@H](N)C(=O)O; Pip = O=C(O)[C@@H]1CCCCN1; NHBn = c1ccc(CN*)cc1
measured-metric: pEC50
Hey, just a heads up that pEC50 is the negative log base 10 of the concentration in molar.

Q: Find pEC50 (human NOP receptor (Homo sapiens)) for the entry Cc1cc(O)cc(C)c1C[C@H](N)C(=O)N1CCCC[C@H]1C(=O)NCC(=O)NCc1ccccc1 [UTA1003] (H-[Dmt]-[Pip]-Gly-NHBn)
Ans: 5.75

====

target-entity: human MOP receptor (Homo sapiens, UniProt P35372)
Construct: expressed in transfected cells; host or cells: CHO (CHO-MOP, G418 selection)
Sequence (P35372 whole entry): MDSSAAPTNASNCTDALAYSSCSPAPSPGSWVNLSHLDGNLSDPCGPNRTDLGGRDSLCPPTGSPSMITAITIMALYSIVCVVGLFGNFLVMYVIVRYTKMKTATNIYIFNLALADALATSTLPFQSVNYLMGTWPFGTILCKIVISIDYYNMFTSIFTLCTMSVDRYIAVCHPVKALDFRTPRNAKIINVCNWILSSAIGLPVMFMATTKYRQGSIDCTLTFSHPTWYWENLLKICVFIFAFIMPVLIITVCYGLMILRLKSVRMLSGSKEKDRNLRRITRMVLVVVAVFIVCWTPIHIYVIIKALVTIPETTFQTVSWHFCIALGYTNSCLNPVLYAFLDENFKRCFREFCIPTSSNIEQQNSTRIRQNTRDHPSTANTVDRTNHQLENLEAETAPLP
assay-remarks: cAMP assay in CHO-MOP cells (agonism)
Format: cell-based
measurement-parameters: EC50, CHO-MOP; 1 µM forskolin
Non-standard residues stand in square brackets, D forms with d. Residues, ends and D or L forms follow the SMILES beside them. *: point of attachment. Dmt = Cc1cc(O)cc(C)c1C[C@H](N)C(=O)O; Pip = O=C(O)[C@@H]1CCCCN1; NHBn = c1ccc(CN*)cc1
measured-metric: pEC50
Schema: pEC50 number; meaning minus log10 of the concentration expressed in molar units.

Q: Value wanted: pEC50 (human MOP receptor (Homo sapiens, UniProt P35372)) of entry Cc1cc(O)cc(C)c1C[C@H](N)C(=O)N1CCCC[C@H]1C(=O)NCC(=O)NCc1ccccc1 [UTA1003] (H-[Dmt]-[Pip]-Gly-NHBn)
Ans: 8.16

====

target-entity: human DOP receptor (Homo sapiens)
Construct: expressed in transfected cells; host or cells: CHO (CHO-DOP, G418 selection)
assay-remarks: cAMP assay in CHO-DOP cells (agonism)
Format: cell-based
measurement-parameters: EC50, CHO-DOP; 1 µM forskolin
Non-standard residues stand in square brackets, D forms with d. Residues, ends and D or L forms follow the SMILES beside them. *: point of attachment. Dmt = Cc1cc(O)cc(C)c1C[C@H](N)C(=O)O; Pip = O=C(O)[C@@H]1CCCCN1; NHBn = c1ccc(CN*)cc1
measured-metric: pEC50
Schema: pEC50 number; meaning minus log10 of the concentration expressed in molar units.

Q: Suppose we examine the compound Cc1cc(O)cc(C)c1C[C@H](N)C(=O)N1CCCC[C@H]1C(=O)NCC(=O)NCc1ccccc1 [UTA1003] (H-[Dmt]-[Pip]-Gly-NHBn) ; what pEC50 value has been reported?
Ans: 7.58

====

target-entity: human KOP receptor (Homo sapiens)
Construct: expressed in transfected cells; host or cells: CHO (CHO-KOP, G418 selection)
Sequence (P41145 whole entry): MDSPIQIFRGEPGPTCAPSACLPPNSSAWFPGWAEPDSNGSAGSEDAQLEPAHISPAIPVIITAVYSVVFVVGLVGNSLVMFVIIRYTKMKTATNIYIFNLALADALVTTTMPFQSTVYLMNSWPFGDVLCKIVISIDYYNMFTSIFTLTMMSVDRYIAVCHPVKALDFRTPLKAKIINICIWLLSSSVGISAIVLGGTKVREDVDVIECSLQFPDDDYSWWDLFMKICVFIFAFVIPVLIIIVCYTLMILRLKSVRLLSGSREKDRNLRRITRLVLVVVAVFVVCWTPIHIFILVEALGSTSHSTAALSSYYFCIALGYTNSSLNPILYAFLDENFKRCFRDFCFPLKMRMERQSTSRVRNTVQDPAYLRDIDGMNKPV
assay-remarks: cAMP assay in CHO-KOP cells (agonism)
Type: cell-based
measurement-parameters: pEC50
Non-standard residues stand in square brackets, D forms with d. Residues, ends and D or L forms follow the SMILES beside them. *: point of attachment. Dmt = Cc1cc(O)cc(C)c1C[C@H](N)C(=O)O; Pip = O=C(O)[C@@H]1CCCCN1; NHBn = c1ccc(CN*)cc1
measured-metric: pEC50
Bear in mind: pEC50 is minus log10 of a mol/L concentration; give just that figure.

Q: Item Cc1cc(O)cc(C)c1C[C@H](N)C(=O)N1CCCC[C@H]1C(=O)NCC(=O)NCc1ccccc1 [UTA1003] (H-[Dmt]-[Pip]-Gly-NHBn) with human KOP receptor (Homo sapiens) - pEC50?
Ans: 7.51
